# TARGET_OR_TEST_SYSTEM: T1, RasGAP SH2-SH3-SH2 construct (residues 174 to 444), WT (human, UniProt P20936 174-444, C236S | C261S | C372S | C402S)
# T1 sequence: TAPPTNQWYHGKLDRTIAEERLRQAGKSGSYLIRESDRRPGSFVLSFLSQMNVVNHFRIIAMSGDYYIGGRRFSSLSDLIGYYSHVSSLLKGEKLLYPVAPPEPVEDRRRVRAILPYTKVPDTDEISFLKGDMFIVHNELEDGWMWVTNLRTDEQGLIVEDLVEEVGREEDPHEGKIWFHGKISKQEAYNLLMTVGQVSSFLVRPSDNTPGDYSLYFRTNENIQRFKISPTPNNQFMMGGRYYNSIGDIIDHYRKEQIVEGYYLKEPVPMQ
# TEST_SUMMARY: ITC; replicate, Figure S7 panel B
[ ]: non-standard residue; d: D form. pY = N[C@@H](Cc1ccc(OP(=O)(O)O)cc1)C(=O)O
MEASURE: pKd
pKd is defined as minus the log10 of a concentration measured in mol/L.

Lookup: What does the data say about its pKd? Entry: Ac-DPSD[pY]AEPMDAVVKPRNEEENI[pY]SVPHDS-NH2 (p190RhoGAP (ARHGAP35), UniProt Q9NRY4, residues 1083-1111, 29 amino acids; also called p190RhoGAP peptide; ARHGAP35 peptide; source: synthetic peptide, bought: GenScript) [p190RhoGAP phosphopeptide, residues 1083 to 1111 (pY1087, pY1105)]
Found: 8.44
